Tested on: SK-MEL-2 melanoma
Assay: NCI tumour cell line growth inhibition, 48 h
Reported TGI is given for each of the following compounds.
Provide the reading as a plain figure in µM.

| SMILES_TEXT | TEST_SYSTEM | TGI [µM] |
| --- | --- | --- |
| Cc1ccc(-c2nc3c(C(=O)NCCN(C)C)cccc3[nH]2)cc1 | SK-MEL-2 melanoma | 32.8 |

Hello, please tell me recorded TGI for this one: `Cc1ccc(S(=O)(=O)N/N=C/c2oc(-c3ccccc3Cl)c(-c3ccccc3Cl)c2[N+](=O)[O-])cc1`
76.9

Hello, please tell me recorded TGI for this one: `CCOC(=O)/C=C(\C(=O)OCC)n1cnc2c(N)ncnc21`
30.7
